Target: trypsin (Sus scrofa)
Sequence (P00761 9-231): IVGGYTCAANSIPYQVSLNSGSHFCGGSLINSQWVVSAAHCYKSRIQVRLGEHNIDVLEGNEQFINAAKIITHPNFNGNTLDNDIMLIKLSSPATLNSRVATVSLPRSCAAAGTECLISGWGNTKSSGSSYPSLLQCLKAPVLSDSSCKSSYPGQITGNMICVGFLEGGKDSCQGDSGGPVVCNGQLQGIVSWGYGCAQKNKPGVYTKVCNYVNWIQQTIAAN
Experiment: casein digestion protease inhibition assay, absorbance at […] nm
Type: biochemical
assay-readout: IC50 (µM)
Enter your answer as a number in µM; do not include the unit.

Looking up CC(=O)Oc1ccccc1C(=O)O [acetylsalicylic acid, reference compound] , I found its IC50 recorded as 2250
